Experiment: Inhibition of quorum sensing in C6-HSL-induced Chromobacterium violaceum CV026 assessed as […] by measuring minimum inhibitory dose per well after 18 hrs by well diffusion method
Each item that follows carries a reported MIC.
Give the quantity in µg, number only.

CC(=O)OC(c1nc2ccccc2c(=O)n1[C@@H]1C[C@]2(OC1=O)C(=O)Nc1ccccc12)C(C)C (some centres undefined)
32

Asked: Look up MIC: O=C1C=C(Br)/C(=C/Br)O1
Given back: 1

Asked: Look up MIC: CC(=O)OC(c1nc2ccccc2c(=O)n1[C@H]1C[C@@]2(OC1=O)C(=O)Nc1ccccc12)C(C)C (some centres undefined)
Given back: 32

Asked: Look up MIC: CC(C)=C1NC(=O)[C@@H](C[C@@]2(O)C(=O)Nc3ccccc32)n2c1nc1ccccc1c2=O
Given back: 16
